Biological target: human P450 11A1 (Homo sapiens, UniProt P05108)
Sequence (P05108 41-521 limits assumed): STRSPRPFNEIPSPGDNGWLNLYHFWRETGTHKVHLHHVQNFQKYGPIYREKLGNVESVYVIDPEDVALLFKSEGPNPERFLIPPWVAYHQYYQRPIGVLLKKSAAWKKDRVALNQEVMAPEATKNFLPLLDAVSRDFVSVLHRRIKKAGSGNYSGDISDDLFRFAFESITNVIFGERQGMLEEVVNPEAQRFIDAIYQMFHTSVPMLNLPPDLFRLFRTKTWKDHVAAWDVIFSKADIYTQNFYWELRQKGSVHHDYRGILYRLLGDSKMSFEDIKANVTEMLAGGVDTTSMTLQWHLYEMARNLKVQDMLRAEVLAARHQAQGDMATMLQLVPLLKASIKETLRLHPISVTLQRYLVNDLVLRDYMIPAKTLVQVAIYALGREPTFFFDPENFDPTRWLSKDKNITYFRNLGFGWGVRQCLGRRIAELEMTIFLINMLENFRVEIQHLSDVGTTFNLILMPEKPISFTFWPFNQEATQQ
Sequence (P00257 59-186 partner): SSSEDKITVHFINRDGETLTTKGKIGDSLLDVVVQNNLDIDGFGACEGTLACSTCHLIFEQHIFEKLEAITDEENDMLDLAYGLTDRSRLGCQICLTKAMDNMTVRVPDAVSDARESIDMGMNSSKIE
Test: Single-turnover kinetics of P450 11A1 with [1,2-3H]-cholesterol (radio-HPLC)
Type: biochemical
Design: M A S T R S P R P F N E I P S P G D N; Met-Ala (N-terminal start residues in place of the transit peptide and Ile40) (N); made in house; host or cells: E. coli (P450 11A1 in C41(DE3); Adx and AdR in E. coli)
Settings: second table, headed 10-fold excess (high) Adx, time 100 s
Each record here notes measured concentration in single-turnover reaction.
Number in µM, nothing else.

Worked examples, 3 molecules total:
- molecule: "CC(=O)[C@H]1CC[C@H]2[C@@H]3CC=C4C[C@@H](O)CC[C@]4(C)[C@H]3CC[C@]12C [Pregnenolone]"
  numeric value: 4.341
- molecule: "CC(C)CCC[C@@H](C)[C@H]1CC[C@H]2[C@@H]3CC=C4C[C@@H](O)CC[C@]4(C)[C@H]3CC[C@]12C [Cholesterol]"
  numeric value: 0.1591
- molecule: "CC(C)CC[C@@H](O)[C@](C)(O)[C@H]1CC[C@H]2[C@@H]3CC=C4C[C@@H](O)CC[C@]4(C)[C@H]3CC[C@]12C [20R,22R-(OH)2 Chol, (20R,22R)-Cholest-5-ene-3β,20,22-triol]"
  numeric value: 0

Continue with the molecule presented below.
# input Provide measured concentration in single-turnover reaction value, entry: CC(C)CC[C@@H](O)[C@@H](C)[C@H]1CC[C@H]2[C@@H]3CC=C4C[C@@H](O)CC[C@]4(C)[C@H]3CC[C@]12C [22R-OH Chol, 22R-hydroxycholesterol]
# output 0

---

Target: human P450 11A1 (Homo sapiens, UniProt P05108)
Assay: Single-turnover kinetics of P450 11A1 with [1,2-3H]-cholesterol (radio-HPLC)
Type: biochemical
Set-up: M A S T R S P R P F N E I P S P G D N; Met-Ala (N-terminal start residues in place of the transit peptide and Ile40) (N); made in house; host or cells: E. coli (P450 11A1 in C41(DE3); Adx and AdR in E. coli)
Conditions: 10-fold excess (high) Adx, time 6 s
reported metric: concentration in single-turnover reaction (µM)
Number in µM, nothing else.

Worked examples, 3 compounds total:
- compound: "CC(C)CCC[C@@H](C)[C@H]1CC[C@H]2[C@@H]3CC=C4C[C@@H](O)CC[C@]4(C)[C@H]3CC[C@]12C [Cholesterol]"
  numeric value: 2.762
- compound: "CC(C)CC[C@@H](O)[C@@H](C)[C@H]1CC[C@H]2[C@@H]3CC=C4C[C@@H](O)CC[C@]4(C)[C@H]3CC[C@]12C [22R-OH Chol, 22R-hydroxycholesterol]"
  numeric value: 0.1666
- compound: "CC(C)CC[C@@H](O)[C@](C)(O)[C@H]1CC[C@H]2[C@@H]3CC=C4C[C@@H](O)CC[C@]4(C)[C@H]3CC[C@]12C [20R,22R-(OH)2 Chol, (20R,22R)-Cholest-5-ene-3β,20,22-triol]"
  numeric value: 0.1865

Continue with the compound presented below.
# input Provide measured concentration in single-turnover reaction value, entry: CC(=O)[C@H]1CC[C@H]2[C@@H]3CC=C4C[C@@H](O)CC[C@]4(C)[C@H]3CC[C@]12C [Pregnenolone]
# output 1.385
